Below, each entry is listed with its recorded GI50.
Test system: UACC-257
Assay: NCI tumour cell line growth inhibition, 48 h
The source made the active and inactive calls. Cut-off read from the data, not from the text of the source: active = GI50 up to about 1.1 µM and inactive = higher.
parameter-measured: GI50

[[record]]
compound = "CN(C)CCNC(=O)c1cccc2c1nc(-c1ccc(F)cc1)c1ccccc12"
parameter_measured = "GI50"
endpoint_result = "2.95 µM (inactive)"

[[record]]
compound = "CCOP(=O)(OCC)C1CCCOC1=O (centres undefined)"
parameter_measured = "GI50"
endpoint_result = "> 100 µM (inactive)"

[[record]]
compound = "CCCCCC(=O)N[C@H]1CCc2cc(O)c(O)c(O)c2-c2ccc(SC)c(=O)cc21"
parameter_measured = "GI50"
endpoint_result = "37.5 µM (inactive)"

[[record]]
compound = "CCC[C@H](C)C[C@H](C)C[C@H](C)/C=C(\\C)[C@@H](O)[C@@H](C)C(=O)CC"
parameter_measured = "GI50"
endpoint_result = "20.1 µM (inactive)"

[[record]]
compound = "OCC1CCCC(n2cnc3c(S)ncnc32)O1 (centres undefined)"
parameter_measured = "GI50"
endpoint_result = "> 100 µM (inactive)"

[[record]]
compound = "COc1ccc(P2(=S)Oc3ccccc3-c3ccccc3O2)cc1"
parameter_measured = "GI50"
endpoint_result = "1.35 µM (inactive)"

[[record]]
compound = "COc1cc(-c2nn3c(=O)n(-c4ccc(Cl)cc4)c(=O)nc3s2)cc(OC)c1OC"
parameter_measured = "GI50"
endpoint_result = "> 58.7 µM (inactive)"

[[record]]
compound = "COc1c(OC)c(N)c2cc(C)c(=O)c(C)cc2c1N"
parameter_measured = "GI50"
endpoint_result = "> 100 µM (inactive)"

[[record]]
compound = "COc1ccc(NC(=O)CCc2cc(-c3ccc(O)c(OC)c3)nc(NC#N)n2)cc1"
parameter_measured = "GI50"
endpoint_result = "> 100 µM (inactive)"


====

Tested on: RPMI-8226
Experiment: NCI tumour cell line growth inhibition, 48 h
Active and inactive are the calls of the source. Cut-off read from the data, not from the text of the source: active = GI50 up to about 1.1 µM and inactive = higher.
Possible outcomes: active, inactive

[[record]]
molecule = "O=C(O)CCSC(=O)Nc1ccc([N+](=O)[O-])cc1"
class_label = "inactive"

[[record]]
molecule = "O=C(CSCC(=O)N/N=C/c1cccc(OCc2ccccc2)c1)N/N=C/c1cccc(OCc2ccccc2)c1"
class_label = "inactive"

[[record]]
molecule = "COc1cc(-c2nn3c(=O)n(-c4ccc(Cl)cc4)c(=O)nc3s2)cc(OC)c1OC"
class_label = "inactive"

[[record]]
molecule = "N#Cc1cc([N+](=O)[O-])ccc1NC(=O)C(=O)Nn1c(S)nc2ccccc2c1=O"
class_label = "inactive"

[[record]]
molecule = "c1ccc(CCN2CCOCC2)nc1"
class_label = "inactive"

[[record]]
molecule = "CCCCCNC(=O)c1cc2cc(CCl)ccc2oc1=O"
class_label = "inactive"

[[record]]
molecule = "O=C(NO)c1coc2ccccc2c1=O"
class_label = "inactive"

[[record]]
molecule = "O=C(/C=C(\\C(=O)c1cccs1)c1cccs1)c1ccc(C(=O)/C=C(\\C(=O)c2cccs2)c2cccs2)cc1"
class_label = "inactive"

[[record]]
molecule = "NNC(=S)N1CCN(C(=S)NN)CC1"
class_label = "inactive"

[[record]]
molecule = "Oc1cc(-c2cccc(Cl)c2)nc2cc3c(cc12)OCO3"
class_label = "active"

[[record]]
molecule = "CO[C@H]1O[C@@H]2OC3(C)CCC4[C@H](C)CCC([C@H]1C)[C@]42OO3 (stereo partly specified)"
class_label = "inactive"

[[record]]
molecule = "c1ccc([P+](Cc2ccc(C[P+](c3ccccc3)(c3ccccc3)c3ccccc3)cc2)(c2ccccc2)c2ccccc2)cc1"
class_label = "inactive"

[[record]]
molecule = "C[C@]12CC[C@H]3[C@@H](CC=C4C[C@@H](O)CC[C@@]43C)[C@@H]1C/C(=C/c1ccccc1)[C@@H]2O"
class_label = "inactive"

[[record]]
molecule = "Cc1c(C(=O)C/C(=N/NC(=O)C[n+]2ccccc2)C(=O)Nc2ccccc2)[n+]([O-])c2ccccc2[n+]1[O-]"
class_label = "inactive"

[[record]]
molecule = "O=[N+]([O-])c1ccc2c(c1)Nc1c3ccccc3nc3cccc-2c13"
class_label = "inactive"

[[record]]
molecule = "Cc1cccc(C2=C/C(=C(\\SS/C(C(=O)c3ccc(OCC(=O)O)c(Cl)c3Cl)=C3\\C=C(c4cccc(C)c4)SS3)C(=O)c3ccc(OCC(=O)O)c(Cl)c3Cl)SS2)c1"
class_label = "inactive"

[[record]]
molecule = "O=C(NCC(O)COc1ccccc1)c1ccccc1O (stereo unspecified)"
class_label = "inactive"

[[record]]
molecule = "CC(C)=CC1C(C(=O)Oc2ccccc2C(C)C)C1(C)C (stereo unspecified)"
class_label = "inactive"

[[record]]
molecule = "O=C1/C(=C\\c2ccc([N+](=O)[O-])cc2)N(S(=O)(=O)c2ccccc2)c2ncccc21"
class_label = "inactive"

[[record]]
molecule = "c1ccc(/C(=N/Nc2cnccn2)c2ncccn2)cc1"
class_label = "inactive"

[[record]]
molecule = "OCCNCO"
class_label = "inactive"


====

System: CCRF-CEM
Assay: NCI tumour cell line growth inhibition, 48 h
Active and inactive are the calls of the source. Cut-off read from the data, not from the text of the source: active = GI50 up to about 1.1 µM and inactive = higher.
Possible outcomes: active, inactive

[[record]]
molecule = "O=C1c2ccccc2N1C(=O)c1ccccc1[N+](=O)[O-]"
assay_system = "CCRF-CEM"
class_label = "inactive"

[[record]]
molecule = "CC(=O)Nc1ccc2c3c(cc(O)c2c1)N(C(=O)CCCCCCC(=O)N1CC(CCl)c2c1cc(O)c1cc(NC(C)=O)ccc21)CC3CCl (configuration not stated)"
assay_system = "CCRF-CEM"
class_label = "active"

[[record]]
molecule = "N#CC1=C(N)N(c2ccccc2)C(c2ccco2)C1(C#N)C#N (configuration not stated)"
assay_system = "CCRF-CEM"
class_label = "inactive"

[[record]]
molecule = "c1ccc2c(c1)N=C(c1cccc3ccccc13)CC(c1ccc3c(c1)OCO3)S2 (configuration not stated)"
assay_system = "CCRF-CEM"
class_label = "inactive"

[[record]]
molecule = "COC(=O)c1c(O)ccc2c1c1c(n2Cc2ccc(OC)cc2)C(=O)c2ccccc2C1"
assay_system = "CCRF-CEM"
class_label = "inactive"

[[record]]
molecule = "CC(=O)c1ccc(N2CCN(C3=CC(=O)c4c(O)ccc(O)c4C3=O)CC2)cc1"
assay_system = "CCRF-CEM"
class_label = "inactive"

[[record]]
molecule = "Cc1ccnc2nc(-c3cccc(Cl)c3)cc(O)c12"
assay_system = "CCRF-CEM"
class_label = "active"

[[record]]
molecule = "O=C1OC(c2ccc(O)c(F)c2)(c2ccc(O)c(F)c2)c2cccc3cccc1c23"
assay_system = "CCRF-CEM"
class_label = "inactive"

[[record]]
molecule = "COc1cc2c(cc1OC)C(=O)N(c1ccc(OCCN3CCCC3)cc1)C2=O"
assay_system = "CCRF-CEM"
class_label = "inactive"

[[record]]
molecule = "COc1ccc2[nH]c(Cl)c(/C=C3/C(=O)N(c4ccccc4)c4ccccc43)c2c1"
assay_system = "CCRF-CEM"
class_label = "inactive"

[[record]]
molecule = "COc1ccc(C(C)NNC(=O)c2ccncc2)cc1OC (configuration not stated)"
assay_system = "CCRF-CEM"
class_label = "inactive"

[[record]]
molecule = "COC(=O)c1cc(=O)nc2sc3cccc(C)c3n12"
assay_system = "CCRF-CEM"
class_label = "inactive"

[[record]]
molecule = "COC(=O)C1Cc2c([nH]c3ccccc23)[C@H](CC(C)C)N1 (some centres not stated)"
assay_system = "CCRF-CEM"
class_label = "inactive"

[[record]]
molecule = "C=C(c1ccccc1)c1cc2c(=O)[nH]ccc2n1C"
assay_system = "CCRF-CEM"
class_label = "inactive"

[[record]]
molecule = "O=C(/C=C(\\C(=O)c1cccs1)c1cccs1)c1ccc(C(=O)/C=C(\\C(=O)c2cccs2)c2cccs2)cc1"
assay_system = "CCRF-CEM"
class_label = "inactive"

[[record]]
molecule = "CC(=O)n1c(=O)c2cc3c(=O)n(-c4cccc(C#N)c4)c(=O)c3cc2c1=O"
assay_system = "CCRF-CEM"
class_label = "inactive"

[[record]]
molecule = "COc1ccc(/C=C/C(C(=O)O)C(=O)O)cc1"
assay_system = "CCRF-CEM"
class_label = "inactive"

[[record]]
molecule = "COc1ccc(C2Oc3ccc(Cl)cc3C=C2[N+](=O)[O-])cc1OC (configuration not stated)"
assay_system = "CCRF-CEM"
class_label = "active"

[[record]]
molecule = "Cn1c(=O)ccc2cc(C(=O)c3ccccc3)ccc21"
assay_system = "CCRF-CEM"
class_label = "inactive"

[[record]]
molecule = "Oc1cc(-c2cccc(Cl)c2)nc2cc3c(cc12)OCO3"
assay_system = "CCRF-CEM"
class_label = "active"

[[record]]
molecule = "C=CCCCC(C#N)(c1ccccc1)N1CCCC1 (configuration not stated)"
assay_system = "CCRF-CEM"
class_label = "inactive"

[[record]]
molecule = "CCN(CC)C(=O)N1CCN(C=S)CC1"
assay_system = "CCRF-CEM"
class_label = "inactive"

